Assay: Oral bioavailability in Han-Wistar rat at 2 mg/kg
Format: ADME, organism-based
Details: Han-Wistar, in vivo
Readings of bioavailability for the listed compounds
MEASURED ATTRIBUTE: bioavailability (%)

In [3]: df
Out[3]:
                        structure_as_smiles  measured_attribute  obs_value
0  CN1CCN(CCCS(=O)(=O)c2ccc3nc(NC(=O)NC(=O)c4cc(N5CCOCC5)ccc4Cl)sc3c2)CC1     bioavailability         30
1  CN1CCN(CCCS(=O)(=O)c2ccc3nc(NC(=O)NC(=O)c4ccccc4Cl)sc3c2)CC1     bioavailability        125
